System: Pseudomonas aeruginosa
Experiment: Antibacterial activity against Pseudomonas aeruginosa 9027
Type: functional
Kindly apply the following: true if MIC is less than 3 µg/mL, false in every other case.

Example cases with answers are listed next.
> print(dat)
                                    molecule         target.of.assay  label.value
 1  CO/N=C(\CNC(C)=O)[C@@H]1C[C@H](SC2=C(C(=O)O)N3C(=O)[C@H]([C@@H](C)O)[C@H]3[C@H]2C)CN1  Pseudomonas aeruginosa         true
 2  C[C@@H](O)[C@H]1C(=O)N2C(C(=O)O)=C(S[C@@H]3CN[C@H](C(=O)N(C)C)C3)[C@H](C)[C@H]12  Pseudomonas aeruginosa         true
 3  CNS(=O)(=O)NC/C(=N\OC)[C@@H]1C[C@H](SC2=C(C(=O)O)N3C(=O)[C@H]([C@@H](C)O)[C@H]3[C@H]2C)CN1  Pseudomonas aeruginosa         true
 4  CO/N=C(\CNS(=O)(=O)N(C)C)[C@@H]1C[C@H](SC2=C(C(=O)O)N3C(=O)[C@H]([C@@H](C)O)[C@H]3[C@H]2C)CN1  Pseudomonas aeruginosa        false
 5  CC(O)[C@H]1C(=O)N2C(C(=O)O)=C(SCCNC=N)C[C@H]12 (single isomer, unassigned) [IMIPENEM ANHYDROUS]  Pseudomonas aeruginosa         true
 6  CO/N=C(\CN)[C@@H]1C[C@H](SC2=C(C(=O)O)N3C(=O)[C@H]([C@@H](C)O)[C@H]3[C@H]2C)CN1  Pseudomonas aeruginosa        false
 7  CO/N=C(\CNS(C)(=O)=O)[C@@H]1C[C@H](SC2=C(C(=O)O)N3C(=O)[C@H]([C@@H](C)O)[C@H]3[C@H]2C)CN1  Pseudomonas aeruginosa        false
 8  CCNS(=O)(=O)NC/C(=N\OC)[C@@H]1C[C@H](SC2=C(C(=O)O)N3C(=O)[C@H]([C@@H](C)O)[C@H]3[C@H]2C)CN1  Pseudomonas aeruginosa        false
 9  CO/N=C(\CNC(N)=O)[C@@H]1C[C@H](SC2=C(C(=O)O)N3C(=O)[C@H]([C@@H](C)O)[C@H]3[C@H]2C)CN1  Pseudomonas aeruginosa         true
10  CCCNS(=O)(=O)NC/C(=N\OC)[C@@H]1C[C@H](SC2=C(C(=O)O)N3C(=O)[C@H]([C@@H](C)O)[C@H]3[C@H]2C)CN1  Pseudomonas aeruginosa        false

hey, is MIC for CCS(=O)(=O)NC/C(=N\OC)[C@@H]1C[C@H](SC2=C(C(=O)O)N3C(=O)[C@H]([C@@H](C)O)[C@H]3[C@H]2C)CN1 lower than 3 µg/mL or not?
false

---

What MIC was measured for each of the following?
System: Escherichia coli
Test: Antibacterial activity against Escherichia coli DC2
Format: functional
Answers are plain numbers, in µg/mL.

Recorded MIC, per entry:
> print(dat)
                                   compound  test.value
1  CC(O)[C@H]1C(=O)N2C(C(=O)O)=C(SCCNC=N)C[C@H]12 (single isomer, unassigned) [IMIPENEM ANHYDROUS]       0.391
2  CNS(=O)(=O)NC/C(=N\OC)[C@@H]1C[C@H](SC2=C(C(=O)O)N3C(=O)[C@H]([C@@H](C)O)[C@H]3[C@H]2C)CN1       0.013
3  CO/N=C(\CN)[C@@H]1C[C@H](SC2=C(C(=O)O)N3C(=O)[C@H]([C@@H](C)O)[C@H]3[C@H]2C)CN1       0.049
4  CO/N=C(\CNC(N)=O)[C@@H]1C[C@H](SC2=C(C(=O)O)N3C(=O)[C@H]([C@@H](C)O)[C@H]3[C@H]2C)CN1       0.049

Now, please, on to the next compound.
Entry CO/N=C(\CNS(C)(=O)=O)[C@@H]1C[C@H](SC2=C(C(=O)O)N3C(=O)[C@H]([C@@H](C)O)[C@H]3[C@H]2C)CN1 , system Escherichia coli: what MIC was measured?
0.195
